# assay-details: BSK_3C_Vis: BioMAP Diversity Plus: 3C Assay for Morphology Visualization (AID 2283025);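 further: fitted both ways so gain or loss versus DMSO counts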
# study-conditions: primary human endothelial cells (HUVEC)
Active and inactive are the calls of the source. How the source made its calls: active means hit-call score of the fitted dose curve at least 0.9, where 1 is the maximum; inactive means score below 0.9.
Classes used: True (active), False (inactive)

- test-smiles: "O=C1O[C@H]([C@H](O)CO)C(O)=C1O"
  class: "False"
- test-smiles: "CCCCCCCC(=O)OC"
  class: "False"
- test-smiles: "O=C1NC(=O)C(c2ccccc2)(c2ccccc2)N1"
  class: "False"
- test-smiles: "CC(C)(C)c1ccccc1"
  class: "False"
- test-smiles: "COC(=O)CCCC(=O)OC"
  class: "False"
- test-smiles: "O=C1OC(c2ccc(O)cc2)(c2ccc(O)cc2)c2ccccc21"
  class: "True"
- test-smiles: "C=CCc1ccc(OC)c(OC)c1"
  class: "False"
- test-smiles: "CCCCc1nc2cccnc2n1Cc1ccc(-c2ccccc2-c2nnn[nH]2)cc1"
  class: "False"
- test-smiles: "CC(=O)S[C@H](C(=O)N[C@H]1Cc2ccccc2[C@H]2CCC[C@@H](C(=O)O)N2C1=O)C(C)C"
  class: "False"
- test-smiles: "COc1ccc(OC(F)(F)F)cc1CN[C@H]1CCCN[C@H]1c1ccccc1"
  class: "True"
- test-smiles: "CC(C)COC(=O)CCCCC(=O)OCC(C)C"
  class: "False"
- test-smiles: "OCC(CO)n1cnc(-c2ccc(F)cc2)c1-c1ccnc(Oc2ccccc2)n1"
  class: "False"
- test-smiles: "O=Cc1ccccc1C=O"
  class: "False"

###

# experimental-system: rat Glutamate, AMPA Site (AMPA), Gria1 (gene 50592) (UniProt P19490)
# Sequence (P19490 whole entry, looked up): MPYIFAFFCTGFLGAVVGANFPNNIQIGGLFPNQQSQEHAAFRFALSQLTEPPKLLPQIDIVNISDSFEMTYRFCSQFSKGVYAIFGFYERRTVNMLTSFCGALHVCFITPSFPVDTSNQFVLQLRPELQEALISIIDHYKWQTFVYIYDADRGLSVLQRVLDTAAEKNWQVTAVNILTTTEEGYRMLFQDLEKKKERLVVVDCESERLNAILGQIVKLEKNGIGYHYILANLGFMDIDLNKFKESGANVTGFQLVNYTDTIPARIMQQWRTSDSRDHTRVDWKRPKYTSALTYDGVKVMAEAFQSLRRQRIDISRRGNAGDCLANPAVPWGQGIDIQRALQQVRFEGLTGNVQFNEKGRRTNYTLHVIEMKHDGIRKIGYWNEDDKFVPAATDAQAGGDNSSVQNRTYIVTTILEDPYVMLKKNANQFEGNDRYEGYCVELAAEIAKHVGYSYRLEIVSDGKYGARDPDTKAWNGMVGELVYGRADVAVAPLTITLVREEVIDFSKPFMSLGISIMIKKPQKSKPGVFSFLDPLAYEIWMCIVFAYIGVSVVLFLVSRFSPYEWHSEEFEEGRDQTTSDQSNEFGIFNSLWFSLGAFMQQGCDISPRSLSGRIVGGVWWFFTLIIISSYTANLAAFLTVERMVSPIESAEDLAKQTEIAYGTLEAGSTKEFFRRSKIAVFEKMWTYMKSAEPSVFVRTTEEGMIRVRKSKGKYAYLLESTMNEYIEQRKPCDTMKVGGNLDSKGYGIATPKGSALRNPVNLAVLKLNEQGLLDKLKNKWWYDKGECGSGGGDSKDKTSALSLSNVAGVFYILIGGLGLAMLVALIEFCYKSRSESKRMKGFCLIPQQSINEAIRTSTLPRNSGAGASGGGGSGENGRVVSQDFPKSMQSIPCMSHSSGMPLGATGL
# assay-details: NVS_LGIC_rAMPA: NovaScreen (NVS) Ligand-Gated Ion Channel Assay for rat Glutamate, AMPA Site (AMPA) (AID 2283324)
Inconclusive results are not listed. Calls of active or inactive are those of the source. The calls were made as follows: active = hit-call score of the fitted dose curve at least 0.9, where 1 is the maximum; inconclusive = response in the unintended direction; inactive = score below 0.9.
Classes used: active, inactive

- molecule: "O=Cc1ccccc1C=O"
  class: "active"
- molecule: "CC(C)NCC(O)c1ccc(O)c(O)c1 (centres undefined)"
  class: "inactive"
- molecule: "COc1ccc(OC(F)(F)F)cc1CN[C@H]1CCCN[C@H]1c1ccccc1"
  class: "inactive"
- molecule: "CCCCC(CC)COP(=O)(OCC(CC)CCCC)OCC(CC)CCCC (centres undefined)"
  class: "inactive"

###

# assay-details: TOX21_p53_BLA_p3_viability: Viability Assessment in the Tox21 HCT-116 p53 Agonism Beta-lactamase Assay, Phase 3 (AID 2283593);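 further: cells exposed to compound for 16 h before reading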
Records with an inconclusive call do not appear. The source made the active and inactive calls. Rule for the calls: active = hit-call score of the fitted dose curve at least 0.9, where 1 is the maximum; inconclusive = response in the unintended direction; inactive = score below 0.9.
Classes used: active, inactive

- compound: "CCCC[C@H]1CN(CC2CCOCC2)C(=O)OC12CCN(C1(C)CCN(C(=O)c3c(C)ncnc3C)CC1)CC2"
  class: "inactive"
- compound: "CCCCCCCCCC[N+](C)(C)[O-]"
  class: "inactive"
- compound: "Nc1nc(Cl)nc2c1ncn2[C@H]1C[C@H](O)[C@@H](CO)O1"
  class: "inactive"
- compound: "O=[Si]=O"
  class: "inactive"
- compound: "Cc1ccc(C(C)(C)C)c(O)c1"
  class: "inactive"
- compound: "Cc1c(C)c2c(c(C)c1O)CCC(C)(COc1ccc(CC3SC(=O)NC3=O)cc1)O2 (configuration not stated)"
  class: "active"
- compound: "COc1ccc(OC(F)(F)F)cc1CN[C@H]1CCCN[C@H]1c1ccccc1"
  class: "inactive"
- compound: "CCCCC(CC)COC(=O)CCCCCCCC(=O)OCC(CC)CCCC (configuration not stated)"
  class: "inactive"
- compound: "CCCCCCCC(=O)OC"
  class: "inactive"
- compound: "S=c1[nH]c2ccccc2s1"
  class: "inactive"
- compound: "CCCCCCCCCCCCCCOS(=O)(=O)O"
  class: "inactive"
- compound: "O=C1O[C@H]([C@H](O)CO)C(O)=C1O"
  class: "inactive"
